target: human ERK-2 (Mitogen Activated Kinase 1) (Homo sapiens); construct: N-terminal 6-His fusion protein in E. coli and corresponding to aa 8-360; 6-His (N); made in house; host or cells: E. coli; test: ERK-2 Enzymatic Assay; assay type: biochemical; settings: TABLE I; 5nM ERK-2 enzyme, 25µM ATP, S/T17 peptide substrate; single assay or mean of multiple assays
Reported IC50 values follow for various compounds
Only the number, expressed in nM, is required.

Some solved cases for reference:
Cn1cc([C@@H](NC(=O)c2ccc3cnc(N[C@@H]4CCO[C@H](CO)C4)nc3c2)c2ccc(Cl)c(F)c2)cn1 | 1.4
COc1ccc([C@@H](NC(=O)c2ccc3cnc(NC4CCOCC4)nc3c2)c2cnn(C)c2)cc1C#N | 141
COc1ccc([C@H](NC(=O)c2cc(F)c3cnc(NC4CCOCC4)nc3c2)c2cnn(C)c2)cc1Cl | 0.6
COc1ccc([C@H](NC(=O)c2cc(F)c3cnc(NCCCF)nc3c2)c2cnn(C)c2)cc1F | 15
COc1ccc([C@H](NC(=O)c2cc(F)c3cnc(NCC4COC4)nc3c2)c2cnn(C)c2)cc1F | 4
COc1ccc([C@H](NC(=O)c2cc(F)c3cnc(N[C@@H]4CCOC[C@@H]4F)nc3c2)c2cnn(C)c2)cc1F | 4
Cn1cc([C@@H](NC(=O)c2cc(F)c3cnc(NC4CCOCC4)nc3c2)c2ccc(C#N)c(Cl)c2)cn1 | 0.6
COc1ccc([C@H](NC(=O)c2cc(F)c3cnc(NCC4CC4)nc3c2)c2cnn(C)c2)cc1F | 6

Query string: Answer with the recorded IC50 for the compound listed here: COc1ccc([C@H](NC(=O)c2cc(F)c3cnc(N[C@H]4CCOC[C@H]4F)nc3c2)c2cnn(C)c2)cc1F
Result string: 2.6

Query string: Answer with the recorded IC50 for the compound listed here: C[C@H](Nc1ncc2ccc(C(=O)N[C@@H](c3ccc(Cl)c(F)c3)[C@@H]3CCCN3)cc2n1)C(F)(F)F
Result string: 7.3

Query string: Answer with the recorded IC50 for the compound listed here: COc1ccc([C@@H](NC(=O)c2ccc3cnc(N[C@H](C)C4CC4)nc3c2)[C@@H]2CCCN2)cc1F (stereo in doubt)
Result string: 2

Query string: Answer with the recorded IC50 for the compound listed here: Cn1cc([C@@H](NC(=O)c2ccc3cnc(N[C@H]4CCOC[C@@H]4F)nc3c2)c2ccc(Cl)c(F)c2)cn1
Result string: 3.8

----------
biological target: human ERK-2 (Mitogen Activated Kinase 1) (Homo sapiens); construct: N-terminal 6-His fusion protein in E. coli and corresponding to aa 8-360; 6-His (N); made in house; host or cells: E. coli; experiment: ERK-2 Enzymatic Assay; assay type: biochemical; conditions: TABLE II; 5nM ERK-2 enzyme, 25µM ATP, S/T17 peptide substrate; single assay or mean of multiple assays
reported_metric: log10 IC50 (log10 of the value in nM)
Kindly note that the scale is log10 and the underlying IC50 is in nM.

Some solved cases for reference:
COc1ccc([C@H](NC(=O)c2ccc3cnc(N[C@H]4C[C@@H](O)C4)nc3c2)c2cnn(C)c2)cc1F | 0.62
COc1ccc([C@H](NC(=O)c2cc(F)c3cnc(NC4CCOCC4)nc3c2)c2cnnn2C)cc1F | 0.15
COc1ccc([C@H](NC(=O)c2cc(F)c3cnc(NC4CCOCC4)nc3c2)c2cnn(C)c2)cc1 | 0.85
COc1ccc([C@H](NC(=O)c2cc(F)c3cnc(N[C@H]4C[C@@H](F)C4)nc3c2)c2cnn(C)c2)cc1F | 0.58
COc1ccc([C@H](NC(=O)c2ccc3cnc(NC4CSC4)nc3c2)c2cnn(C)c2)cc1F | 1.11

Query string: Answer with the recorded log10 IC50 for the compound listed here: COc1ccc([C@H](NC(=O)c2ccc3cnc(N[C@H]4C[C@H]5C[C@@H]4CO5)nc3c2)c2cnn(C)c2)cc1F
Result string: 3.00

Query string: Answer with the recorded log10 IC50 for the compound listed here: Cn1cc([C@@H](NC(=O)c2ccc3cnc(Nc4ccnn4C)nc3c2)c2ccc(Cl)c(F)c2)cn1
Result string: 0.49

Query string: Answer with the recorded log10 IC50 for the compound listed here: O=C(N[C@@H](c1ccc(OC(F)(F)F)c(F)c1)[C@H]1CCCNC1)c1ccc2cnc(NC3CCOCC3)nc2c1
Result string: 2.33

----------
target: human ERK-2 (Mitogen Activated Kinase 1) (Homo sapiens, UniProt P28482); construct: N-terminal 6-His fusion protein in E. coli and corresponding to aa 8-360; 6-His (N); made in house; host or cells: E. coli; assay: ERK-2 Enzymatic Assay; assay type: biochemical; conditions: TABLE I; 5nM ERK-2 enzyme, 25µM ATP, S/T17 peptide substrate; single assay or mean of multiple assays
Sequence (P28482 8-360): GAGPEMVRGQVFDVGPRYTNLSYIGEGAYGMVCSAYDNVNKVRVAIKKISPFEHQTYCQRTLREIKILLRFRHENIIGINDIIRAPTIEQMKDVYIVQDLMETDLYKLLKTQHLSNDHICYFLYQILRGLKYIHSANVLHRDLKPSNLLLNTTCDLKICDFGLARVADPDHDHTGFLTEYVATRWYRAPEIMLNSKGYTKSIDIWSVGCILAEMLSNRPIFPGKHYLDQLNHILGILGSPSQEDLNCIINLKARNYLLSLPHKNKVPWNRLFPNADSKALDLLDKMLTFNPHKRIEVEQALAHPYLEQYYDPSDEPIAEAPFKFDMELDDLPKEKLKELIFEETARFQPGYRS
Param label: returns label 1 when IC50 < 7 nM, returns label 0 otherwise, including exact equality.

# example entries with known answers
O=C(N[C@@H](c1ccc(F)c(Cl)c1)[C@@H]1CCNC1)c1ccc2cnc(NC3CCOCC3)nc2c1 [Compound I-8] | label 1
Cn1cc([C@@H](NC(=O)c2ccc3cnc(NC4CCOCC4)nc3c2)c2ccc(OC(F)F)cc2)cn1 [Compound I-41] | label 1
C[C@@H]1CC[C@H]([C@@H](NC(=O)c2ccc3cnc(NC4CCOCC4)nc3c2)c2ccc(Cl)c(F)c2)N1 [Compound I-35] | label 1
COc1ccc([C@@H](NC(=O)c2cc(F)c3cnc(NC4CCOCC4)nc3c2)[C@@H]2CCCN2)cc1F (stereo in doubt) [Compound I-25] | label 0
Cn1cc([C@@H](NC(=O)c2ccc3cnc(N[C@@H]4CCOC[C@@H]4F)nc3c2)c2ccc(Cl)c(F)c2)cn1 [Compound I-27] | label 0

We next turn to a different compound, shown below.
Query string: Determine if Cn1ccc(C(NC(=O)c2ccc3cnc(NC4CCOCC4)nc3c2)c2ccc(Cl)c(F)c2)n1 (stereo not shown) [Compound I-4] shows IC50 strictly lower than 7 nM.
Result string: label 1

----------
biological target: human ERK-2 (Mitogen Activated Kinase 1) (Homo sapiens, UniProt P28482); construct: N-terminal 6-His fusion protein in E. coli and corresponding to aa 8-360; 6-His (N); made in house; host or cells: E. coli; experiment: ERK-2 Enzymatic Assay; type: biochemical; details: TABLE I; 5nM ERK-2 enzyme, 25µM ATP, S/T17 peptide substrate; single assay or mean of multiple assays
pIC50: −log10 of the molar value.
Entry flag: satisfied if pIC50 reaches 8; not satisfied if it does not.

Cn1ccc([C@H](NC(=O)c2ccc3cnc(NC4CCOCC4)nc3c2)c2ccc(Cl)c(F)c2)n1 [Compound I-21] | not satisfied

Query string: Form field: pIC50 at least 8? Entry: COc1ccc([C@H](NC(=O)c2cc(F)c3cnc(N[C@@H]4CCOC4)nc3c2)c2cnn(C)c2)cc1F (stereo in doubt) [Compound I-62]
Result string: satisfied

Query string: Form field: pIC50 at least 8? Entry: O=C(N[C@@H](c1ccc(F)c(Cl)c1)[C@]1(F)CCNC1)c1ccc2cnc(NC3CCOCC3)nc2c1 [Compound I-36]
Result string: satisfied

Query string: Form field: pIC50 at least 8? Entry: COc1ccc([C@H](NC(=O)c2ccc3cnc(NC4CCOCC4)nc3c2)c2cnn(C)c2)cc1C#N [Compound I-56]
Result string: satisfied

Query string: Form field: pIC50 at least 8? Entry: Cn1ccc([C@@H](NC(=O)c2ccc3cnc(NC4CCOCC4)nc3c2)c2ccc(Cl)c(F)c2)n1 [Compound I-20]
Result string: satisfied

Query string: Form field: pIC50 at least 8? Entry: O=C(N[C@@H](c1ccc(F)c(Cl)c1)[C@@]1(F)CCNC1)c1ccc2cnc(NC3CCOCC3)nc2c1 [Compound I-39]
Result string: satisfied

Query string: Form field: pIC50 at least 8? Entry: COc1ccc([C@@H](NC(=O)c2cc(F)c3cnc(NC4CCOCC4)nc3c2)c2cnn(C)n2)cc1F [Compound I-54]
Result string: not satisfied

----------
Reported IC50 values follow for various compounds
molecular target: human ERK-2 (Mitogen Activated Kinase 1) (Homo sapiens, UniProt P28482); construct: N-terminal 6-His fusion protein in E. coli and corresponding to aa 8-360; 6-His (N); made in house; host or cells: E. coli; experiment: ERK-2 Enzymatic Assay; format: biochemical; settings: TABLE II; 5nM ERK-2 enzyme, 25µM ATP, S/T17 peptide substrate; single assay or mean of multiple assays
Form entry: enter the amount, then its unit.

Cn1nccc1Nc1ncc2ccc(C(=O)NC(c3ccc(Cl)c(F)c3)C3(F)CCNC3)cc2n1 (stereo not shown) | 0.0346 µM
Cn1cc([C@@H](NC(=O)c2ccc3cnc(NC4CCOCC4)nc3c2)c2ccc(C(F)(F)F)c(F)c2)cn1 | 0.0052 µM
COc1ccc([C@H](NC(=O)c2cc(F)c3cnc(NC4CCOCC4)nc3c2)c2ccnn2C)cc1F | 0.0022 µM

Attention now shifts to the item below.
Query string: Check human ERK-2 (Mitogen Activated Kinase 1) (Homo sapiens, UniProt P28482) data and give IC50 for Cn1nccc1[C@@H](NC(=O)c1ccc2cnc(NC3CCOCC3)nc2c1)c1ccc(C#N)c(Cl)c1 .
Result string: 0.026 µM
